Target: Tyrosine-protein kinase ABL1 (Homo sapiens, UniProt P00519)
Sequence (P00519 whole entry): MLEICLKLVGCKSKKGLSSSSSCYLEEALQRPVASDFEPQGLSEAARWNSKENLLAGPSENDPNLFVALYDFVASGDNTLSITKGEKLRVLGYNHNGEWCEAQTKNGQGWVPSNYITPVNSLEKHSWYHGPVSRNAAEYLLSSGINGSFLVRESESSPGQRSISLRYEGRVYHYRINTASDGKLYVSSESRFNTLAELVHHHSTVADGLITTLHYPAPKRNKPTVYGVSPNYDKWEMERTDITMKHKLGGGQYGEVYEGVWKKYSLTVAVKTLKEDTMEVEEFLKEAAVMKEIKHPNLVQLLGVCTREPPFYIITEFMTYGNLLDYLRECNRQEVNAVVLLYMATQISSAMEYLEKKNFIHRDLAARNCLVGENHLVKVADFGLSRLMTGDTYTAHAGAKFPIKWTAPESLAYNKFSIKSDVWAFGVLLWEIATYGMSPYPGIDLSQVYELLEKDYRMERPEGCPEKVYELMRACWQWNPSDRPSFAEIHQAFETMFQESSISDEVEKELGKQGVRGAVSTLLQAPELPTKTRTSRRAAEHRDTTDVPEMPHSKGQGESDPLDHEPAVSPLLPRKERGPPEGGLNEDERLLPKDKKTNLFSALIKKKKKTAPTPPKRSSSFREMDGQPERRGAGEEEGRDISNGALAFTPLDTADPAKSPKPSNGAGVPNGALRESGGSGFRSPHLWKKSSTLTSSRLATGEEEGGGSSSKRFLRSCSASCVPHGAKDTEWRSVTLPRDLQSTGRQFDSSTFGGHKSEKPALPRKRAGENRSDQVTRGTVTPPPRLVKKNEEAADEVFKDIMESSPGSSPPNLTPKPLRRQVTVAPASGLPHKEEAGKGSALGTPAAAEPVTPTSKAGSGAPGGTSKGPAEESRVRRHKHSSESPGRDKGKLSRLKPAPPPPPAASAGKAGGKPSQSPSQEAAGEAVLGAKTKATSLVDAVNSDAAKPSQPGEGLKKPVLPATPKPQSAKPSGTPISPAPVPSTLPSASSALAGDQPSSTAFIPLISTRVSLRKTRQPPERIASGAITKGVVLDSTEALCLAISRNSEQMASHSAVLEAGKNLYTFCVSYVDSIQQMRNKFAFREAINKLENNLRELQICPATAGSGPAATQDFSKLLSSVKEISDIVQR
Assay: Inhibition of NanoLuc-tagged ABL1 wild type (unknown origin) expressed in HEK293 cells by NanoBRET TE assay
Could you please mark MET for values of IC50 below 0.6 µM and NOT MET for values at or above it?

[Q] Consider the compound CC(C)(C)c1cc(NC(=O)Nc2ccc(Oc3ccc4ncccc4c3)cc2)n(-c2ccc3ncccc3c2)n1 . Is its IC50 strictly less than 0.6 µM?
[A] MET

[Q] Consider the compound CC(C)(C)c1cc(NC(=O)Nc2ccc(Oc3ccc4cccnc4c3)cc2)n(-c2ccc3ncccc3c2)n1 . Is its IC50 strictly less than 0.6 µM?
[A] NOT MET

[Q] Consider the compound CN1CCN(Cc2ccc(NC(=O)Nc3ccc(Oc4ccc5ncncc5c4)cc3)cc2C(F)(F)F)CC1 . Is its IC50 strictly less than 0.6 µM?
[A] MET

[Q] Consider the compound CN1CCN(Cc2ccc(NC(=O)Nc3ccc(Oc4ccc5ncccc5c4)cc3)cc2C(F)(F)F)CC1 . Is its IC50 strictly less than 0.6 µM?
[A] MET

[Q] Consider the compound CN1CCN(Cc2ccc(NC(=O)Nc3ccc(Oc4ccc5cccnc5c4)cc3)cc2C(F)(F)F)CC1 . Is its IC50 strictly less than 0.6 µM?
[A] NOT MET
